Origin of values: ChEMBL document CHEMBL4321854

Quick list: IC50 per entry.
Test system: Dual specificity mitogen-activated protein kinase kinase 1 (Homo sapiens, UniProt Q02750)
Sequence (Q02750 whole entry): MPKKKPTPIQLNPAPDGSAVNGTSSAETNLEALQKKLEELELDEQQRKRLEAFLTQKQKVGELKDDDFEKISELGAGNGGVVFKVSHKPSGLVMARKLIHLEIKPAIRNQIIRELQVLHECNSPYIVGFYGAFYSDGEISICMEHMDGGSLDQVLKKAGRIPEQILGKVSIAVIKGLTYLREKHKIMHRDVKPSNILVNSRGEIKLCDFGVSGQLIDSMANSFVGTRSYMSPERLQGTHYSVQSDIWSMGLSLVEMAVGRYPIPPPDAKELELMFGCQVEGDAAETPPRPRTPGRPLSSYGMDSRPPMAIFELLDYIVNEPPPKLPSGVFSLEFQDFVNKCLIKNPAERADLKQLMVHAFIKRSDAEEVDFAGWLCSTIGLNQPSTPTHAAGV
Assay protocol: Inhibition of recombinant full length human His-tagged MEK1 expressed in baculovirus expression system using ERK K52R dead variant as substrate preincubated for 20 mins followed by incubation with 33P-ATP addition for 2 hrs by hotspot kinase assay
Field: numeric (nM). Do not append units.

| Chem smiles | Test system | IC50 / nM |
| --- | --- | --- |
| Cc1ncsc1-c1ccc([C@H](C)NC(=O)[C@@H]2C[C@@H](O)CN2C(=O)[C@@H](NC(=O)CCCCCCCCCCNCCCONC(=O)c2ccc(F)c(F)c2Nc2ccc(I)cc2F)C(C)(C)C)cc1 | Dual specificity mitogen-activated protein kinase kinase 1 (Homo sapiens, UniProt Q02750) | 1500 |

Given item Cc1ncsc1-c1ccc([C@H](C)NC(=O)[C@H]2C[C@H](O)CN2C(=O)[C@@H](NC(=O)CCCCCCCCCCNCCCONC(=O)c2ccc(F)c(F)c2Nc2ccc(I)cc2F)C(C)(C)C)cc1 , the value recorded as its IC50 is 1600
